Tested on: MES-induced seizure in mice
Assay: Maximal electroshock (MES) induced seizure test
Assay type: in vivo, Male NMRI mice
Conditions: Mus musculus, dose 10 mg/kg ip, MES 50 mA, 60 Hz, 0.2 s, read-out: MES Number of animals protected / Number of tested animals (converted)
Let's look at some compounds and their measured responders at 10 mg/kg.

# smiles_input, responders at 10 mg/kg (%)
records = [
    ("O=C(CSc1nnc(-c2ccccc2Oc2ccccc2)o1)Nc1ccc([N+](=O)[O-])cc1", 50),
    ("O=C(CSc1nnc(-c2ccccc2Oc2ccccc2)o1)Nc1ccccc1[N+](=O)[O-]", 50),
    ("O=C(CSc1nnc(-c2ccccc2Oc2ccccc2)o1)Nc1ccc(F)cc1F", 25),
    ("O=C(CSc1nnc(-c2ccccc2Oc2ccccc2)o1)Nc1cc(Cl)cc(Cl)c1", 25),
    ("COc1ccc(NC(=O)CSc2nnc(-c3ccccc3Oc3ccccc3)o2)cc1", 25),
    ("O=C(CSc1nnc(-c2ccccc2Oc2ccccc2)o1)Nc1cccc(Cl)c1", 75),
    ("Cc1c(NC(=O)CSc2nnc(-c3ccccc3Oc3ccccc3)o2)cccc1[N+](=O)[O-]", 0),
    ("O=C(CSc1nnc(-c2ccccc2Oc2ccccc2)o1)Nc1ccc(Br)cc1", 50),
    ("Cc1ccc(NC(=O)CSc2nnc(-c3ccccc3Oc3ccccc3)o2)cc1", 25),
    ("O=C(CSc1nnc(-c2ccccc2Oc2ccccc2)o1)Nc1ccccc1", 50),
    ("O=C(CSc1nnc(-c2ccccc2Oc2ccccc2)o1)Nc1ccc(F)cc1", 50),
    ("O=C(CSc1nnc(-c2ccccc2Oc2ccccc2)o1)Nc1ccccc1Cl", 25),
    ("O=C(CSc1nnc(-c2ccccc2Oc2ccccc2)o1)Nc1cccc(Br)c1", 25),
]
